# System: murine embryonic fibroblasts (MEFs)
# protocol text: β-Lactamase protein transduction assay (CCF2-AM), protocol 3/700
# condition: 3 hours, 700 mOsm/Kg, 25 mM compound, compared with NDSB201 (#01) or parent compound
recorded endpoint: protein transduction activity (in words)

{"columns": ["molecule", "tested system", "recorded endpoint", "result value"],
 "data": [
  ["O=S(=O)([O-])CCC[n+]1ccccc1 [compound 1, 3-(1-pyridino)-1-propanesulfonate, reference compound]", "murine embryonic fibroblasts (MEFs)", "protein transduction activity (in words)", "most efficient"],
  ["C[N+]1(CCCS(=O)(=O)[O-])CCCCC1 [compound 03, reference compound]", "murine embryonic fibroblasts (MEFs)", "protein transduction activity (in words)", "most efficient"]
]}

* * *

# Tested on: murine embryonic fibroblasts (MEFs)
# protocol text: β-Lactamase protein transduction assay (CCF2-AM), protocol 3/700
# condition: 3 hours, tonicity adjusted to 700 mOsm/Kg with the compound, 25 mM NDSB201 and osmoprotectants
recorded endpoint: protein transducing activity of hypertonicity-inducing compound

{"columns": ["compound", "tested system", "result value"],
 "data": [
  ["[Cl-].[Na+] [NaCl, Sodium chloride]", "murine embryonic fibroblasts (MEFs)", "the highest activity"],
  ["[Cl-].[Rb+] [RbCl, rubidium chloride]", "murine embryonic fibroblasts (MEFs)", "the highest activity"]
]}

Where do these numbers come from? They come from patent US10883116B2.
